assay: In vitro microsomal stability, rat; assay type: in vitro ADME; settings: 5 min
Would you kindly list % of compound remaining when incubated in rat liver microsomes with NADPH for each of these compounds?
One number for each entry, in %.

# example entries with known answers
CC(C)(C)C[C@H]1N[C@@H](C(=O)N[C@H]2C[C@@H](O)C2)[C@H](c2cccc(Cl)c2F)[C@@]12C(=O)Nc1cc(Cl)ccc12 (stereo in doubt) :: 66.01
CC(C)(C)C[C@H]1N[C@@H](C(=O)N[C@H]2C[C@@](C)(O)C2)[C@H](c2cccc(Cl)c2F)[C@@]12C(=O)Nc1cc(Cl)ccc12 :: 71.95
CC(O)C(O)CCNC(=O)[C@@H]1N[C@H](CC(C)(C)C)[C@]2(C(=O)Nc3cc(Cl)c(F)cc32)[C@H]1c1cccc(Cl)c1 (stereo partly shown) :: 80.22

Next, consider the following compound.
## Input Which % of compound remaining when incubated in rat liver microsomes with NADPH reading was recorded for the compound CC(C)(C)C[C@H]1N[C@@H](C(=O)NC2CC(O)C2)[C@H](c2cccc(Cl)c2F)[C@@]12C(=O)Nc1cc(Cl)ccc12 (stereo partly shown) ?
## Output 79.93

* * *

assay: In vitro microsomal stability, rat; assay type: in vitro ADME; conditions: Table 16, 4 min
Would you kindly list % of compound remaining when incubated in rat liver microsomes for each of these compounds?
Numbers only, in %.

# example entries with known answers
CCN1CCN(CCNC(=O)C2NC(CC(C)(C)C)C3(C(=O)Nc4cc(Cl)ccc43)C2c2cccc(Cl)c2F)CC1 (stereo not shown) :: 74.4
CC(C)N1CCN(CCNC(=O)[C@@H]2N[C@H](CC(C)(C)C)[C@]3(C(=O)Nc4cc(Cl)ccc43)[C@H]2c2cccc(Cl)c2F)CC1 :: 77.2
CN1CCC(CCNC(=O)C2NC(CC(C)(C)C)C3(C(=O)Nc4cc(Cl)ccc43)C2c2cccc(Cl)c2F)CC1 (stereo not shown) :: 96.3

## Input Which % of compound remaining when incubated in rat liver microsomes reading was recorded for the compound CC(C)(C)C[C@H]1N[C@@H](C(=O)NCCC2CCC(O)C2)[C@H](c2cccc(Cl)c2)[C@@]12C(=O)Nc1cc(Cl)c(F)cc12 (stereo partly shown) ?
## Output 63.1

* * *

molecular target: recombinant human His-tagged MDM2 protein (residues 1-118) (Homo sapiens (Human)); experiment: Fluorescence-polarization MDM2 binding assay; settings: Table 19B; read-out: Binding affinities to MDM2 protein as determined by FP based assay IC50
pIC50: −log10 of the molar value.
readout-kind: pIC50

# example entries with known answers
O=C(NCC[C@H](O)CO)[C@@H]1N[C@H](CC2CC2)[C@]2(C(=O)Nc3cc(Cl)c(F)cc32)[C@H]1c1cccc(Cl)c1 :: > 5.00
CC(C)(C)C[C@H]1N[C@@H](C(=O)N2CCN(C(=O)C3CC3)CC2)[C@H](c2cccc(Cl)c2)[C@@]12C(=O)Nc1cc(Cl)c(F)cc12 :: < 6.00

Next, consider the following compound.
## Input Which pIC50 reading was recorded for the compound O=C(NCC[C@H](O)CO)[C@@H]1N[C@H](CCc2ccco2)[C@]2(C(=O)Nc3cc(Cl)c(F)cc32)[C@H]1c1cccc(Cl)c1 [MI-715B] ?
## Output > 5.30

* * *

Would you kindly list pIC50 for each of these compounds?
target: recombinant human His-tagged MDM2 protein (residues 1-118) (Homo sapiens (Human), UniProt Q00987); assay: Fluorescence-polarization MDM2 binding assay; conditions: Table 19B; read-out: Binding affinities to MDM2 protein as determined by FP based assay IC50
Sequence (Q00987 1-118): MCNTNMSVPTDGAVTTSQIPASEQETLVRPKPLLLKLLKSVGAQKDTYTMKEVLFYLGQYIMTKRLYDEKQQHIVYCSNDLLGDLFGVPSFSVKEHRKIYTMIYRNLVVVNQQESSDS
pIC50: −log10 of the molar value.

CCC(C)(C)C[C@H]1N[C@@H](C(=O)NCC[C@H](O)CO)[C@H](c2cccc(Cl)c2)[C@@]12C(=O)Nc1cc(Cl)c(F)cc12 :: > 6.00
O=C(NCC[C@H](O)CO)[C@@H]1N[C@H](CC2CCCCC2)[C@]2(C(=O)Nc3cc(Cl)c(F)cc32)[C@H]1c1cccc(Cl)c1 [MI-716B] :: > 6.00

## Input Which pIC50 reading was recorded for the compound CN1[C@@H](C(=O)NCC[C@H](O)CO)[C@H](c2cccc(Cl)c2)[C@@]2(C(=O)Nc3cc(Cl)c(F)cc32)[C@H]1CC(C)(C)C [MI-708B] ?
## Output < 5.52

* * *

experiment: In vitro microsomal stability, rat; format: in vitro ADME; conditions: rat liver microsomes, NADPH, 60 min
Would you kindly list % of compound remaining when incubated in rat liver microsomes with NADPH for each of these compounds?
Answers are plain numbers, in %.

# example entries with known answers
CC(C)(C)C[C@H]1N[C@@H](C(=O)N[C@H]2CC[C@@H](O)C2)[C@H](c2cccc(Cl)c2F)[C@@]12C(=O)Nc1cc(Cl)ccc12 [MI-519-51] :: 0.00
CC(C)(C)C[C@H]1N[C@@H](C(=O)NCCC(C)(O)CO)[C@H](c2cccc(Cl)c2)[C@@]12C(=O)Nc1cc(Cl)c(F)cc12 (stereo partly shown) [MI-758] :: 66.93
CC(C)(C)C[C@H]1N[C@@H](C(=O)NCC[C@H](O)CN2CCCC2)[C@H](c2cccc(Cl)c2)[C@@]12C(=O)Nc1cc(Cl)c(F)cc12 [MI-519-28] :: 61.79
CC(C)(C)C[C@H]1N[C@@H](C(=O)N[C@H]2CC[C@@H](O)C2)[C@H](c2cccc(Cl)c2)[C@@]12C(=O)Nc1cc(Cl)c(F)cc12 [MI-519-27] :: 2.13
CC(C)(C)C[C@H]1N[C@@H](C(=O)NCC[C@H](O)CNC(C)(C)C)[C@H](c2cccc(Cl)c2)[C@@]12C(=O)Nc1cc(Cl)c(F)cc12 [MI-519-24] :: 61.51

State the recorded % of compound remaining when incubated in rat liver microsomes with NADPH for every item in the following list.
1. CC(C)(C)C[C@H]1N[C@@H](C(=O)NC2CCC(NS(C)(=O)=O)CC2)[C@H](c2cccc(Cl)c2F)[C@@]12C(=O)Nc1cc(Cl)ccc12 (stereo partly shown) [MI-771]
2. CC(C)(C)C[C@H]1N[C@@H](C(=O)NCC[C@H](O)CN2CC[C@@H](O)C2)[C@H](c2cccc(Cl)c2)[C@@]12C(=O)Nc1cc(Cl)c(F)cc12 [MI-519-29]

## Output
1. 0.46
2. 69.91

* * *

biological target: recombinant human His-tagged MDM2 protein (residues 1-118) (Homo sapiens (Human), UniProt Q00987); assay: Fluorescence-polarization MDM2 binding assay; details: Table 19D; read-out: MDM2 Binding Affinities IC50;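 further: fluorescence polarization read after three hours of incubation in potassium phosphate buffer containing bovine gamma globulin and Triton X-100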
readout-kind: IC50

CC(C)(C)C[C@H]1N[C@@H](C(=O)NCC[C@H](O)CO)[C@H](c2cccc(Cl)c2F)[C@@]12C(=O)Nc1cc(F)c(F)cc12 :: < 3 µM
CC(C)(C)C[C@H]1N[C@@H](C(=O)NCC[C@H](O)CO)[C@H](c2ccc(F)c(Cl)c2)[C@@]12C(=O)Nc1cc(F)ccc12 :: < 1 µM
CC(C)(C)C[C@H]1N[C@@H](C(=O)NCCCO)[C@H](c2cccc(Cl)c2)[C@@]12C(=O)Nc1cc(Cl)c(F)cc12 :: < 1 µM

State the recorded IC50 for every item in the following list.
1. CC(C)(C)C[C@H]1N[C@@H](C(=O)NCC[C@H](O)CO)[C@H](c2ccc(F)c(Cl)c2)[C@@]12C(=O)Nc1cc(F)c(F)cc12
2. CC(C)(C)C[C@H]1N[C@@H](C(=O)NCC[C@H](O)CO)[C@H](c2cccc(F)c2)[C@@]12C(=O)Nc1cc(F)c(F)cc12
3. CC(C)(C)C[C@H]1N[C@@H](C(=O)NCCC2CCC(O)C2)[C@H](c2cccc(Cl)c2)[C@@]12C(=O)Nc1cc(F)c(F)cc12 (stereo partly drawn) [MI-519-25]

## Output
1. < 3 µM
2. > 5 µM
3. < 3 µM

State the recorded IC50 for every item in the following list.
1. CC(C)(C)C[C@H]1N[C@@H](C(=O)N[C@H]2CC[C@@H](N)C2)[C@H](c2cccc(Cl)c2F)[C@@]12C(=O)Nc1cc(Cl)ccc12
2. CCCN1CCN(CCNC(=O)[C@@H]2N[C@H](CC(C)(C)C)[C@]3(C(=O)Nc4cc(Cl)c(F)cc43)[C@H]2c2cccc(Cl)c2)CC1
3. CN1CCC(CNC(=O)[C@@H]2N[C@H](CC(C)(C)C)[C@]3(C(=O)Nc4cc(Cl)ccc43)[C@H]2c2cccc(Cl)c2F)CC1
4. CC(C)(C)C[C@H]1N[C@@H](C(=O)NC2CN(CC(F)F)C2)[C@H](c2cccc(Cl)c2F)[C@@]12C(=O)Nc1cc(Cl)ccc12
5. CN1[C@@H](C(=O)NCC[C@H](O)CO)[C@H](c2cccc(Cl)c2F)[C@@]2(C(=O)Nc3cc(F)c(F)cc32)[C@H]1CC(C)(C)C
6. CC(C)(C)C[C@H]1N[C@@H](C(=O)NCC[C@H](O)CO)[C@H](c2cccc(Cl)c2)[C@@]12C(=O)Nc1cc(F)c(F)cc12

## Output
["< 1 µM", "< 3 µM", "< 1 µM", "< 1 µM", "< 10 µM", "< 3 µM"]
